- target system: BaDHPS (Bacillus anthracis, UniProt Q81VW8)
- Sequence (Q81VW8 1-280): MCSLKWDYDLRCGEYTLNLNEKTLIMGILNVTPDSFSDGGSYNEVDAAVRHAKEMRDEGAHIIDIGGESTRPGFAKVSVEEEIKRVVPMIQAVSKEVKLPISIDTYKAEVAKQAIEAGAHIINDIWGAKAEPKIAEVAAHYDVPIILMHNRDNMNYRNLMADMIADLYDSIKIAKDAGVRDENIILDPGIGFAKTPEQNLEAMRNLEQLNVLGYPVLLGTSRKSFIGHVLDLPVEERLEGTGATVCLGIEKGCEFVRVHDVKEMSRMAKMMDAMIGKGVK
- assay name: biochemical
- Format: binding
- conditions: read-out: SPR KD(eq)
quantity kind: Kd (nM)

>>> print(df.to_string())
                                       smi  quantity_kind  readout_unit  experimental_value
0  Nc1nc2[nH]nc(CCC(=O)O)c(=O)c2c(=O)[nH]1             Kd            nM                 713

###

// SPR kd lookup, one value per entry
- target system: BaDHPS (Bacillus anthracis, UniProt Q81VW8)
- assay name: biochemical
- Format: binding
- conditions: 25 °C
quantity kind: SPR kd

In [3]: df
Out[3]:
                                   compound  quantity_kind    experimental_value
0  Cn1nc(CC(=O)O)c(=O)c2c(=O)[nH]c(N)nc21 [Compound 16]         SPR kd  6.94(6) × 10^−2 s^−1
1  CC(C(=O)O)c1n[nH]c2nc(N)[nH]c(=O)c2c1=O (centres unmarked) [Compound 19]         SPR kd  4.39(3) × 10^−2 s^−1
2  CC(CC(=O)O)c1n[nH]c2nc(N)[nH]c(=O)c2c1=O (centres unmarked) [Compound 24]         SPR kd  3.39(1) × 10^−1 s^−1
3  Nc1nc2[nH]nc(CC(=O)O)c(=O)c2c(=O)[nH]1 [Compound 23]         SPR kd  4.35(3) × 10^−2 s^−1
4  Nc1nc2[nH]nc(CCC(=O)O)c(=O)c2c(=O)[nH]1 [Compound 25]         SPR kd  3.14(1) × 10^−1 s^−1

Origin of values: paper PMC3463507
